Measurement Target: Autotaxin enzyme (ATX) (Homo sapiens, UniProt Q13822)
Measurement Label: IC50

Exercise: Record request: IC50 value, item O=C(c1cnc(NC2Cc3ccc(Cl)cc3C2)nc1)N1CCC12CCOCC2 (centres unmarked) [Example 47]
Key: < 100 nM

Exercise: State the recorded IC50 for this entry: CN1CCC2(CCN2C(=O)c2cnc(NCc3cc(OC(F)(F)F)cc(C4CC4)c3)nc2)C1 (centres unmarked) [Example 155]
Key: < 100 nM

Exercise: Endpoint output: IC50 of O=C(c1cnc(NCc2cc(F)cc(OC(F)(F)F)c2)nc1)N1CCC12COC2 [Example 26] . Value?
Key: 100 to 1000 nM

Exercise: Would you mind telling me what IC50 value was observed for O=C(c1cnc(NCc2cc(OC(F)(F)F)cc(C3CC3)c2)nc1)N1CCC12CCOC2 (single isomer, unassigned) [Example 117] ?
Key: < 100 nM

Exercise: Form field: reported IC50 of O=C(c1cnc(NCc2cc(OC(F)(F)F)cc(C3CC3)c2)nc1)N1CCC12COC2 [Example 80]
Key: < 100 nM

Exercise: Recorded IC50 of CN1CCC2(CC1)CCN2C(=O)c1cnc(NCc2cc(OC(F)(F)F)cc(C3CC3)c2)nc1 [Example 112] , please.
Key: < 100 nM

Exercise: Suppose we examine the compound COc1cc(CNc2ncc(C(=O)N3CCC34COC4)cn2)cc(OC(F)(F)F)c1 [Example 30] ; what IC50 value has been reported?
Key: 100 to 1000 nM

Others:
Exercise: Consider the compound shown here: O=C(c1cnc(NCc2cc(OC(F)(F)F)cc(C3CC3)c2)nc1)N1CCc2cccnc21 [Example 90] What is its recorded IC50?
Key: 100 to 1000 nM
